Collected pIC50 for Serine/threonine-protein kinase mTOR (Homo sapiens) across several studies; molecules listed below.
pIC50: −log10 of the molar value.
measurementType: pIC50

smilesRecord	resultModifier	valueReported
CCOc1ccc(-c2ccc3ncc4c(c3c2)n(-c2ccnn2CC)c(=O)n4C)cn1	=	6.79
Cn1c(=O)n(-c2ccc(C(C)(C)C#N)nc2)c2c3cc(-c4cnc(N)nc4)ccc3ncc21	>	7.00
Nc1ncc(-c2nc(N3CCOCC3)nc3c2cnn3C2CCOCC2)cn1	>	6.00
CCn1cc(-n2c(=O)n(C)c3cnc4ccc(-c5cnc(N)c(COC)c5)cc4c32)c(C)n1	=	7.39
CNC(=O)c1ccc(-c2ccc3ncc4c(c3c2)n(-c2c(C)nn(C)c2C)c(=O)n4C)cn1	=	6.47
CO[C@H]1CCO[C@@H](Cn2c(=O)[nH]c3ncc(-c4cnc5[nH]ccc5c4)cc32)C1	>	7.30
CCOc1cc(-c2ccc3ncc4c(c3c2)n(-c2cn(C)nc2C)c(=O)n4C)ccc1OC	=	7.89
